Origin of the recorded values: ChEMBL document CHEMBL1135454

- tested.on: Proto-oncogene tyrosine-protein kinase Src (Homo sapiens, UniProt P12931)
- Sequence (P12931 2-536 limits assumed): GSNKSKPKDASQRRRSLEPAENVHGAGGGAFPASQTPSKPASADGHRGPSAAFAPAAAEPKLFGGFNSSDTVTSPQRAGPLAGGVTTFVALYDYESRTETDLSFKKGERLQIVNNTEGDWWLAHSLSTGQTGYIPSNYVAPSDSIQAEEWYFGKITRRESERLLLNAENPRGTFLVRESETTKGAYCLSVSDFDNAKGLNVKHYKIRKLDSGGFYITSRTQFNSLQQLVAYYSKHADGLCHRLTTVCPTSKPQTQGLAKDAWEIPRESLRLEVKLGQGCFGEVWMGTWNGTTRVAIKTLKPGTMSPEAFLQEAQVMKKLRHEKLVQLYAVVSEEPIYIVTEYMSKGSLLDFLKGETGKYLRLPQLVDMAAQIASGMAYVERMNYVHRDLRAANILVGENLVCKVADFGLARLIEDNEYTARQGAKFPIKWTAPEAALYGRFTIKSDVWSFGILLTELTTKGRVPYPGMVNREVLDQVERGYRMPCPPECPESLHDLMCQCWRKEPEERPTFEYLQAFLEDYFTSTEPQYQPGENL
- procedure.details: Binding affinity towards Src protein tyrosine kinase SH2 domain using surface plasmon resonance (SPR) assay
reported.endpoint: IC50 (µM)
State just the number; it will be interpreted in µM.

Item: COC(=O)c1cc(C[C@H](NC(C)=O)C(=O)N[C@H]2CCCCN(Cc3ccc(-c4ccccc4)cc3)C2=O)ccc1C(C(=O)O)C(=O)O Test system: Proto-oncogene tyrosine-protein kinase Src (Homo sapiens, UniProt P12931) Read-out: IC50 Value: ?
0.556

And then COC(=O)c1cc(C[C@@H](NC(C)=O)C(=O)N[C@H]2CCCCN(Cc3ccc(-c4ccccc4)cc3)C2=O)ccc1C(C(=O)O)C(=O)O , what is it?
0.007

----------
- tested.on: Proto-oncogene tyrosine-protein kinase Src (Homo sapiens)
- procedure.details: Binding affinity for Src protein tyrosine kinase SH2 domain using scintillation proximity binding assay (SPA)
We begin with a simple list: items and their reported IC50.
State just the number; it will be interpreted in µM.

compound: COc1cccc(C=O)c1OP(=O)(O)O
IC50 (µM): 95

Please report the recorded IC50 for O=P(O)(O)Oc1ccccc1 [PHENYL DIHYDROGEN PHOSPHATE] .
300

----------
- tested.on: Proto-oncogene tyrosine-protein kinase Src (Homo sapiens, UniProt P12931)
- procedure.details: Binding affinity for Src protein tyrosine kinase SH2 domain using surface plasmon resonance (SPR) assay
reported.endpoint: pIC50
Worth noting: pIC50 values are minus log10 of concentrations stated in mol/L.

Please report the recorded pIC50 for Cc1cc(C=O)cc(C)c1OP(=O)(O)O .
2.30

----------
- tested.on: UniProtKB P12931
- procedure.details: Binding affinity for Src SH2 domain in scintillation proximity binding assay (SPA)
We begin with a simple list: items and their reported pIC50.
Worth noting: pIC50 values are minus log10 of concentrations stated in mol/L.

given.smiles: O=Cc1ccccc1OP(=O)(O)O
test.value: 4.10

Please report the recorded pIC50 for CC[C@H](C)[C@H](NC(=O)[C@H](CCC(=O)O)NC(=O)[C@H](CCC(=O)O)NC(=O)[C@H](Cc1ccc(OP(=O)(O)O)cc1)NC(C)=O)C(N)=O .
6.82

And then O=Cc1cccc(OP(=O)(O)O)c1 , what is it?
3.22

And then Cc1cc(C=O)c(OP(=O)(O)O)c(C=O)c1 , what is it?
4.41

And then Cc1ccc(CC(=O)O)c(C=O)c1 , what is it?
3.41

----------
- tested.on: Proto-oncogene tyrosine-protein kinase Src (Homo sapiens)
- procedure.details: Binding affinity towards Src protein tyrosine kinase SH2 domain protein using scintillation proximity binding assay (SPA)
reported.endpoint: IC50
Write down the value, and be sure its unit follows.

Item: O=C(O)C(c1ccc(O)cc1)S(=O)(=O)O (stereo unspecified) Test system: Proto-oncogene tyrosine-protein kinase Src (Homo sapiens) Read-out: IC50 Value: ?
190 µM

----------
We begin with a simple list: items and their reported IC50.
- tested.on: UniProt:P12931
- procedure.details: Binding affinity towards Src protein tyrosine kinase SH2 domain using scintillation proximity binding assay (SPA)
State just the number; it will be interpreted in µM.

molecule: O=C(O)C(c1ccccc1)S(=O)(=O)O (configuration not stated)
test.value: 192

Please report the recorded IC50 for Cc1ccc(C(C(=O)O)C(=O)O)c(COC=O)c1 .
100

----------
- tested.on: Proto-oncogene tyrosine-protein kinase Src (Homo sapiens, UniProt P12931)
- procedure.details: Binding affinity for Src protein tyrosine kinase SH2 domain using surface plasmon resonance (SPR) assay
reported.endpoint: IC50
Write down the value, and be sure its unit follows.

Previously resolved entries follow.
compound: CC[C@H](C)[C@H](NC(=O)[C@H](CCC(=O)O)NC(=O)[C@H](CCC(=O)O)NC(=O)[C@H](Cc1ccc(OP(=O)(O)O)cc1)NC(C)=O)C(N)=O
IC50: 0.001 µM
//
compound: O=Cc1ccccc1OP(=O)(O)O
IC50: 300 µM
//
compound: O=P(O)(O)Oc1ccccc1 [PHENYL DIHYDROGEN PHOSPHATE]
IC50: 5000 µM

Please report the recorded IC50 for O=Cc1cccc(OP(=O)(O)O)c1 .
2100 µM
